Hello, the source for this data is patent US20260216326A1, in case you need it.

Biological target: T1, human TL1A (human, UniProt O95150 72-251, limits assumed)
T1 construct: also called tumor necrosis factor-like cytokine 1A; TNFSF15
T1 sequence (looked up): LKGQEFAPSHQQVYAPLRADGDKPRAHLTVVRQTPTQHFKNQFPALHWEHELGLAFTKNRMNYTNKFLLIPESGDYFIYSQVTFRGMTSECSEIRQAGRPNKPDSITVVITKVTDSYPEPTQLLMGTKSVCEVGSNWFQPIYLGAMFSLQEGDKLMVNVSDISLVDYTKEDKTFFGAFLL
Assay: ELISA titration on plate-coated human TL1A, unpurified culture supernatant
Recorded Kd, one value per entry.
Write the value in nM as a bare number.

1. A174 (antibody, IgG1, V domains shown) VH: QVQLVQSGAEVKKPGASVKVSCKASGFDIQDTYMHWVRQAPGQGLEWMGRIEPASGHIKYDPKFQGRATMTRDTSTSTAYMELSSLRSEDTAVYYCARSGGLPDWWGQGTTVTVSS VL: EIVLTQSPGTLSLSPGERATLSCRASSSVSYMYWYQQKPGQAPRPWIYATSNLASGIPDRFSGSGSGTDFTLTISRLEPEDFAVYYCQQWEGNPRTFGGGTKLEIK    0.043
2. A194 (antibody, IgG1, V domains shown) VH: EVQLVQSGAEVKKPGASVKVSCKASGFDIQDTYMHWVRQRPGQGLEWIGRIDPASGHTKYDPKFQVRATITTDTSTSTAYLELSSLRSEDTAVYYCARSGGLPDVWGQGTTVTVSS VL: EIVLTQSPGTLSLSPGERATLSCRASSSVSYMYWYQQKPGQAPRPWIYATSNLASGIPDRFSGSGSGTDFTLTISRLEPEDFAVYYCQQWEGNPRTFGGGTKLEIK    0.051
3. A216 (antibody, IgG1, V domains shown) VH: QVQLVQSGAEVKKPGASVKVSCKASGFDIQDTYMHWVRQRPGQGLEWIGRIDPASGHTKYDPKFQVRVTITRDTSTSTAYLELSSLRSEDTAVYYCARSGGLPDVWGQGTTVTVSS VL: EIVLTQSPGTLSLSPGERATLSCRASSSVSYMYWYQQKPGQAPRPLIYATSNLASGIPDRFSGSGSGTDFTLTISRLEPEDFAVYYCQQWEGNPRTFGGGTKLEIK    0.049

Now examine the next entry.
Q: For A177 (antibody, IgG1, V domains shown) VH: QVQLVQSGAEVKKPGASVKVSCKASGFDIQDTYMHWVRQAPGQGLEWMGRIDPASGHIKYDPKFQGRATITTDTSTSTVYMELSSLRSEDTAVYYCARSGGLPDWWGQGTTVTVSS VL: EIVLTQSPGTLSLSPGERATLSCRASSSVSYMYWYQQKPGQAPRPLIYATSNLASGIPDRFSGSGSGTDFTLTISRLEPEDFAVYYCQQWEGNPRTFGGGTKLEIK , what is its reported Kd?
Ans: 0.052
